Sourced from PubChem BioAssay (EPA / NIEHS)

- Run Description: ATG_FoxO_CIS: Attagene CIS-FACTORIAL HepG2 Assay for human Forkhead box O (FoxO) (AID 2282943)
- Condition Summary: HepG2 Attagene cis-reporter, FoxO element, mRNA; actives raise or lower the signal
- Procedure: ATG_CIS is a cell-based, multiplexed-readout assay that uses HepG2, a human liver cell line, with measurements taken at 24 hours after chemical dosing in a 24-well plate.ATG_FoxO_CIS is one of 52 assay component(s) measured or calculated from the ATG_CIS assay. […] This assay endpoint, ATG_FoxO_CIS, was analyzed with bidirectional fitting relative to DMSO as the negative control and baseline of activity. […]
The source made the active and inactive calls. How the source made its calls: active means hit-call score of the fitted dose curve at least 0.9, where 1 is the maximum; inactive means score below 0.9.

[
  {
    "Mol": "COc1ccc(O)c(C(C)(C)C)c1",
    "outcome": "inactive"
  },
  {
    "Mol": "CO/C=C(/C(=O)OC)c1ccccc1COc1cccc(C(F)(F)F)n1",
    "outcome": "inactive"
  },
  {
    "Mol": "ClC1=C(Cl)[C@]2(Cl)[C@@H]3[C@@H]4C[C@@H]([C@H]5O[C@@H]45)[C@@H]3[C@@]1(Cl)C2(Cl)Cl",
    "outcome": "inactive"
  }
]

====

- Run Description: BSK_CASM3C_Proliferation: Cell Proliferation Assessment in the BioMAP Diversity Plus: CASM3C Assay (AID 2283047);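 further: sulforhodamine B total protein stain as relative cell number at 560 nm; sub-confluent cells exposed 48 h before staining; fitted both ways against DMSO so gain or loss of cell number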
- Condition Summary: primary human coronary artery smooth muscle cells
Activity calls are given as the source filed them. How the source made its calls: active means hit-call score of the fitted dose curve at least 0.9, where 1 is the maximum; inactive means score below 0.9.
Classes used: active, inactive

[
  {
    "Compound": "ClC(Cl)=C(c1ccc(Cl)cc1)c1ccc(Cl)cc1",
    "Cat": "active"
  },
  {
    "Compound": "COc1ccc(O)c(C(C)(C)C)c1",
    "Cat": "inactive"
  },
  {
    "Compound": "CCOP(=S)(OCC)SCSC(C)(C)C",
    "Cat": "inactive"
  },
  {
    "Compound": "CO/C=C(/C(=O)OC)c1ccccc1COc1cccc(C(F)(F)F)n1",
    "Cat": "active"
  },
  {
    "Compound": "CC(C)(c1ccccc1)c1ccc(O)cc1",
    "Cat": "active"
  },
  {
    "Compound": "CCOCCOC(C)=O",
    "Cat": "inactive"
  },
  {
    "Compound": "O=NN(c1ccccc1)c1ccccc1",
    "Cat": "inactive"
  },
  {
    "Compound": "Cc1cc(O)ccc1Cl",
    "Cat": "inactive"
  },
  {
    "Compound": "Sc1ccccc1",
    "Cat": "inactive"
  },
  {
    "Compound": "c1cc2ccc3cccc4ccc(c1)c2c34",
    "Cat": "inactive"
  },
  {
    "Compound": "N#Cc1ccc(N(CC(N)=O)CC(F)(F)F)cc1C(F)(F)F",
    "Cat": "inactive"
  },
  {
    "Compound": "Cc1cccc(C)c1N",
    "Cat": "inactive"
  },
  {
    "Compound": "CC(C)C(=O)OCC(C)(C)C(OC(=O)C(C)C)C(C)C (centres undefined)",
    "Cat": "inactive"
  },
  {
    "Compound": "O=C(O)C(F)(F)C(F)(F)C(F)(F)C(F)(F)C(F)(F)F",
    "Cat": "inactive"
  }
]

====

- Run Description: CCTE_Shafer_MEA_acute_burst_percentage_mean: CCTE's Neural Acute Assay for Percentage of Spikes in a Burst, Shafer Lab (AID 2284017);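 on AC50: curve fitted for loss of signal so potency reflects decreased burst percentage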
Calls of active or inactive are those of the source. Rule for the calls: active = hit-call score of the fitted dose curve at least 0.9, where 1 is the maximum; inactive = score below 0.9.

[
  {
    "Compound": "CCSC(=O)N(CC)C1CCCCC1",
    "AC50": "7.15 µM (active)"
  },
  {
    "Compound": "CN(C)CCO",
    "AC50": "inactive"
  },
  {
    "Compound": "CC#Cc1cc(C)nc(Nc2ccccc2)n1",
    "AC50": "6.86 µM (active)"
  },
  {
    "Compound": "CCCN(CCC)N=O",
    "AC50": "inactive"
  },
  {
    "Compound": "COS(=O)(=O)OC",
    "AC50": "inactive"
  },
  {
    "Compound": "ClC(Cl)=C(c1ccc(Cl)cc1)c1ccc(Cl)cc1",
    "AC50": "33.2 µM (active)"
  },
  {
    "Compound": "CCC(C)(CC)c1cc(NC(=O)c2c(OC)cccc2OC)on1",
    "AC50": "inactive"
  },
  {
    "Compound": "CC(C)C(=O)OCC(C)(C)C(OC(=O)C(C)C)C(C)C (stereo unspecified)",
    "AC50": "inactive"
  },
  {
    "Compound": "CCC(C)(c1ccc(O)cc1)c1ccc(O)cc1",
    "AC50": "inactive"
  },
  {
    "Compound": "CC(c1ccc(O)cc1)(c1ccc(O)cc1)c1ccc(O)cc1",
    "AC50": "29.6 µM (active)"
  },
  {
    "Compound": "ClC1=C(Cl)[C@]2(Cl)[C@@H]3[C@H]4C[C@H]([C@@H]5O[C@H]45)[C@@H]3[C@@]1(Cl)C2(Cl)Cl",
    "AC50": "0.0239 µM (active)"
  },
  {
    "Compound": "C=CC(N)=O",
    "AC50": "inactive"
  },
  {
    "Compound": "O=C(N[C@H]1CN2CCC1CC2)c1cc2ccoc2cn1",
    "AC50": "inactive"
  },
  {
    "Compound": "CCCCCCCCCc1ccc(O)cc1",
    "AC50": "22.5 µM (active)"
  },
  {
    "Compound": "CO/C=C(/C(=O)OC)c1ccccc1COc1cccc(C(F)(F)F)n1",
    "AC50": "5.12 µM (active)"
  },
  {
    "Compound": "CCCCCCCCCC[N+](C)(C)CCCCCCCCCC",
    "AC50": "8.11 µM (active)"
  }
]

====

- Read-out: Phosphatase and tensin (PTEN), PTEN (gene 5728)
- Run Description: LTEA_HepaRG_PTEN: Life Technologies and Expression Analysis (LTEA) Assay for Phosphatase and tensin (PTEN) using HepaRG (AID 2283523)
- Condition Summary: mRNA level, 48 h; actives raise or lower the signal
Activity calls are given as the source filed them. How the source made its calls: active means hit-call score of the fitted dose curve at least 0.9, where 1 is the maximum; inactive means score below 0.9.
Outcome codes: 1 (yes) = active, 0 (no) = inactive

[
  {
    "Compound": "CCCN(CCC)N=O",
    "Cat": "0 (no)"
  },
  {
    "Compound": "CC(C)C(=O)OCC(C)(C)C(OC(=O)C(C)C)C(C)C (stereo not drawn)",
    "Cat": "0 (no)"
  },
  {
    "Compound": "CCSC(=O)N(CC)C1CCCCC1",
    "Cat": "0 (no)"
  },
  {
    "Compound": "CN(C)CCO",
    "Cat": "0 (no)"
  },
  {
    "Compound": "Clc1ccc(C(c2ccccc2Cl)C(Cl)(Cl)Cl)cc1 (stereo not drawn)",
    "Cat": "0 (no)"
  },
  {
    "Compound": "O=C(NC(=O)c1c(F)cccc1F)Nc1cc(Cl)c(OC(F)(F)C(F)F)c(Cl)c1",
    "Cat": "0 (no)"
  },
  {
    "Compound": "Cc1cc(O)ccc1Cl",
    "Cat": "0 (no)"
  },
  {
    "Compound": "Oc1c(Cl)c(Cl)c(Cl)c(Cl)c1Cl",
    "Cat": "1 (yes)"
  },
  {
    "Compound": "NS(=O)(=O)C(F)(F)C(F)(F)C(F)(F)C(F)(F)C(F)(F)C(F)(F)C(F)(F)C(F)(F)F",
    "Cat": "1 (yes)"
  },
  {
    "Compound": "c1cc2ccc3cccc4ccc(c1)c2c34",
    "Cat": "0 (no)"
  },
  {
    "Compound": "Clc1ccc(Cl)cc1",
    "Cat": "0 (no)"
  },
  {
    "Compound": "CCCCCCOC(=O)c1ccccc1C(=O)OCCCCCC",
    "Cat": "0 (no)"
  },
  {
    "Compound": "CCCCCCCCOC(=O)c1ccccc1C(=O)OCCCCCCCC",
    "Cat": "0 (no)"
  },
  {
    "Compound": "CCNc1nc(NC(C)C)nc(SC)n1",
    "Cat": "0 (no)"
  },
  {
    "Compound": "CCC(C)(CC)c1cc(NC(=O)c2c(OC)cccc2OC)on1",
    "Cat": "0 (no)"
  },
  {
    "Compound": "O=C(O)C(F)(F)C(F)(F)C(F)(F)C(F)(F)C(F)(F)F",
    "Cat": "0 (no)"
  },
  {
    "Compound": "COc1ccc(O)c(C(C)(C)C)c1",
    "Cat": "0 (no)"
  },
  {
    "Compound": "O=C(NC(=O)c1cc(F)c(F)cc1Cl)Nc1cc(F)ccc1N1CCC(C(=O)O)CC1",
    "Cat": "0 (no)"
  },
  {
    "Compound": "Cc1cccc(C)c1N",
    "Cat": "0 (no)"
  },
  {
    "Compound": "CC(C)(c1ccccc1)c1ccc(O)cc1",
    "Cat": "0 (no)"
  },
  {
    "Compound": "Clc1ccc(C(Cl)(Cl)Cl)cc1",
    "Cat": "0 (no)"
  },
  {
    "Compound": "CCC(=O)O[C@H]1CC[C@H]2[C@@H]3CCC4=CC(=O)CC[C@]4(C)[C@H]3CC[C@]12C",
    "Cat": "0 (no)"
  },
  {
    "Compound": "N#Cc1ccc(N(CC(N)=O)CC(F)(F)F)cc1C(F)(F)F",
    "Cat": "0 (no)"
  }
]
